Value source: paper PMC10755749

# Tested on: MPXV A29 protein (mpox virus)
# METHOD DESCRIPTION: SPR
Field: Kd. Provide a value for each of the sequences that follow.
Answers are plain numbers, in nM.

| SEQUENCE RECORD | MEASUREMENT UNITS | Kd |
| --- | --- | --- |
| AGCACTCCACGCATAACGGGGGAGGAGGAGGATGTTATTGGGTGGGCGGGTTTGTTATGCGTGCTACCGT [HIM-A29-4] | nM | 18.6 |
| AGCACTCCACGCATAACCGGTGGGCGGGGGATGTGGGAAGGTATCGGGGTTGCGTTATGCGTGCTACCGT [HIM-A29-5] | nM | 8.49 |
| AGCACTCCACGCATAACGGGGGAGGAGGAGGTTCACTTTGGGCGGGTGGGAATGTTATGCGTGCTACCGT [HIM-A29-3] | nM | 12.4 |
| AGCACTCCACGCATAACGGAGCCGGGGGGCCTTGGGGGATGCAGCTTCGAAGTGTTATGCGTGCTACCGT [HIM-A29-2] | nM | 35.4 |

Consider the additional sequence presented here.
IN: Entry under review: AGCACTCCACGCATAACGGGGTCTGGTGGTCTGGCTGGTTTGGGGGTTTGGTCGTTATGCGTGCTACCGT [HIM-A29-1] . Reported Kd?
OUT: 10.8
